B1: TPR 5TU (parent)
chain: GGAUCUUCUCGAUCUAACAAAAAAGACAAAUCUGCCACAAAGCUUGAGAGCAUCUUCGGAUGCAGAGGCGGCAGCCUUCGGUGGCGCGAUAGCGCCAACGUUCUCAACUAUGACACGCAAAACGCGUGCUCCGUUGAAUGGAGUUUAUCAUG

# Variants of: B1
# test protocol: polymerase ribozyme fitness, log enrichment relative to wild type (log ratio); higher = more active; in vitro selection for triplet polymerase activity
Fewer inactive variants are shown than the library holds.
Tick yes (1) if polymerase ribozyme fitness (log ratio) is -3 or greater. Tick no (0) if polymerase ribozyme fitness (log ratio) is less than -3.

alteration	group
A24U U31A C63G C76A	no (0)
U7C C27G C96U	no (0)
C57U C87G G88U C95G C116U C123A U134C	no (0)
A39C G86U	no (0)
C5A U13C C38U A121G U127C	no (0)
A17G A21G U90C A147C A150U	no (0)
G25C U78G C87U G117U C118U U148A	no (0)
C14G A16U A39G G124A	no (0)
C125A U146C	yes (1)
C14G A23U C54G G67U A142U U151A	no (0)
A21G G42A G50C C93G G136U	no (0)
A26U A52U U135A	yes (1)
G25C A52C U53A C87U G92C A98G U104G C108G U135G	no (0)
C27U G48A C69A C96A A121G	no (0)
G86U A91C C99G U109G	no (0)
A12G U55C C57G C87G A121G U148A A150C	no (0)
C14U A107U G117A C118A A142G	no (0)
G11U A30U G65U G70C C85G A91U C93A A150U	no (0)
A16G G34U A52U A60G G88U A91U G140C	no (0)
C14G G81A C87U A106C G140U	no (0)
G71U A89U C95A	no (0)
A39C C57G A89U A97G	no (0)
A20C A115U	yes (1)
U13G C87G	no (0)
U7A A22C C85U	no (0)
A30C G92A U104A A106C C108A	no (0)
C10G C85G G92A C125G	no (0)
C8U C57A	yes (1)
C96U U146C	yes (1)
G25A C51U G59C G88A U102G G136U	no (0)
C18U A19G G94A	yes (1)
C38A A91G	no (0)
U4C A23C A37G U53A	no (0)
G11A C85A	yes (1)
C43U C54U U61A A64C G84U U127A C131G A142G	no (0)
U44G A49U G84A U90G C131U U135G G136A	no (0)
A20C C85U	yes (1)
U55A A60G C99G G141C	yes (1)
A12G C18U G83U A89G C96U	yes (1)
A37U U44A G86C	no (0)
A41C G143A	yes (1)
U61G C76A U78C G88C	no (0)
A3G A16C A26C U45A G59C G86C U130G U145G	no (0)
A40C C75A C114G	no (0)
